Cited source: patent US12686690B2

# assay-target: UniProtKB O43614
# Sequence (O43614 whole entry): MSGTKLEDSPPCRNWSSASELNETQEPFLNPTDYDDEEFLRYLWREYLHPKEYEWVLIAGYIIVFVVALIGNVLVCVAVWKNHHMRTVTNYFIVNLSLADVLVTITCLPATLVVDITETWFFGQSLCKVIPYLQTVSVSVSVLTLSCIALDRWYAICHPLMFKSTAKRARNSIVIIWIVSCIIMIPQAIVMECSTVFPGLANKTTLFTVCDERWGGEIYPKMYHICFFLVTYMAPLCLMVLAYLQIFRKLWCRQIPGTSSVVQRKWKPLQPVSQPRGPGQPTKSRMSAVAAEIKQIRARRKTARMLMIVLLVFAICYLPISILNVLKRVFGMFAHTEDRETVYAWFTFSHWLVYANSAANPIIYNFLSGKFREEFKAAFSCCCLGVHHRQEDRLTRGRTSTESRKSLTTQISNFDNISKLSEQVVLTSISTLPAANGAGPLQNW
# measurement-protocol: hOX2R IPone assay (orexin receptor agonism)
# condition: orexin receptor agonist, IPone readout; read-out: hOX2R_IPone EC50
Output: class label from EC50. Mapping: range A (below 4 nM), range B (4 nM to below 40 nM), range C (40 nM or more)

compound: CCN1C(=O)NC(CC2CC(F)(F)C2)CCCCCOc2nc(cn3ccnc23)-c2cc(ncc2OC)[C@H]1C (single isomer, unassigned) [Example 69B]
assigned-class: range A
//
compound: CCN1C(=O)NC(CC(F)(F)CC)CCOCCOc2cn3ncnc3c(n2)-c2cc(ncc2C)C1C (centres unmarked) [Example 122]
assigned-class: range B
//
compound: CCN1C(=O)NC(CC(C)C)CCCCCOc2nc(cn3ccnc23)-c2cc(ncc2OC)[C@H]1C (single isomer, unassigned) [Example 53A]
assigned-class: range C
//
compound: CCC(CC)CC1CCCCCOc2nc(cn3ccnc23)-c2cc(ncc2OC)[C@@H](C)N(CC)C(=O)N1 (single isomer, unassigned) [Example 64A]
assigned-class: range A
//
compound: CCN1C(=O)N[C@@H](CCC(F)(F)F)CCCCCOc2nc(cn3ccnc23)-c2cc(nc(C)n2)[C@@H]1C [Example 119A]
assigned-class: range C
//
compound: CCN1C(=O)NC(C)CCCCCOc2nc(cn3ccnc23)-c2cccc(c2)[C@H]1C (mixture of isomers) [Example 18]
assigned-class: range B
//
compound: CCN1C(=O)N[C@@H](CC(F)(F)F)CCCCCOc2nc(nn3ccnc23)-c2cc(cnc2OC)[C@H]1C [Example 99]
assigned-class: range C
//
compound: CCN1C(=O)N[C@@H](CCC(F)(F)F)CCCCCOc2nc(cn3ccnc23)-c2nc(co2)C1C (single isomer, unassigned) [Example 105B]
assigned-class: range C
//
compound: CCN1C(=O)NCC(C(F)(F)F)N(C)CCCOc2nc(cn3ccnc23)-c2cccc(c2)C1C (centres unmarked) [Example 26A]
assigned-class: range B
//
compound: CCN1C(=O)NC(CC2(F)CC2)CCCCCOc2nc(cn3ccnc23)-c2cc(ncc2OC)[C@H]1C (some centres unmarked) [Example 183]
assigned-class: range A
//
compound: CCN1C(=O)NC(CCC(C)(F)F)CCCCCOc2nc(c(C)n3ncnc23)-c2cc(ncc2OC)C1C (centres unmarked) [Example 172]
assigned-class: range B
//
compound: CCN1C(=O)N[C@@H](CCC(F)(F)F)CCCCCOc2nc(cn3ccnc23)-c2cc(cnc2OC)[C@H]1C [Example 28]
assigned-class: range A
//
compound: CCN1C(=O)NCCCOCCOc2nc(cn3ccnc23)-c2cccc(c2)[C@H]1C [Example 14]
assigned-class: range B
